For each record, write down the corresponding pIC50.
- System: HT-1080
- measurement protocol: Antiproliferative activity against human HT-1080 cells assessed as inhibition of cell growth incubated for 24 hrs by CCK-8 assay
- Assay type: functional, cell-based
- measurement parameters: HT-1080, 24 h
Worth noting: pIC50 values are minus log10 of concentrations stated in mol/L.

Fill blank: measured pIC50 of the compound Cc1ncsc1-c1ccc(CNC(=O)[C@@H]2C[C@@H](O)CN2C(=O)[C@@H](NC(=O)CN2CCN(CC3CCN(C(=O)COc4ccc(C(c5ccc(Cl)cc5)N5CCN(C(=O)c6noc(C)c6[N+](=O)[O-])CC5)cc4)CC3)CC2)C(C)(C)C)cc1 (some centres not stated) is ____.
5.32

Given the entry Cc1ncsc1-c1ccc(CNC(=O)[C@@H]2C[C@@H](O)CN2C(=O)[C@@H](NC(=O)CCCCCCCCCCCOc2ccc(C(c3ccc(Cl)cc3)N3CCN(C(=O)c4noc(C)c4[N+](=O)[O-])CC3)cc2)C(C)(C)C)cc1 (some centres not stated) , report its measured pIC50.
5.63

Query: pIC50; subject: Cc1ncsc1-c1ccc(CNC(=O)[C@@H]2C[C@@H](O)CN2C(=O)[C@@H](NC(=O)CCCCOc2ccc(C(c3ccc(Cl)cc3)N3CCN(C(=O)c4noc(C)c4[N+](=O)[O-])CC3)cc2)C(C)(C)C)cc1 (some centres not stated)
5.81

Which pIC50 is listed for Cc1ncsc1-c1ccc(CNC(=O)[C@@H]2C[C@@H](O)CN2C(=O)[C@@H](NC(=O)COCCOCCOc2ccc(C(c3ccc(Cl)cc3)N3CCN(C(=O)c4noc(C)c4[N+](=O)[O-])CC3)cc2)C(C)(C)C)cc1 (some centres not stated) ?
5.68

Suppose we examine the compound `Cc1onc(C(=O)N2CCN(C(c3ccc(Cl)cc3)c3ccc(Cl)cc3)CC2)c1[N+](=O)[O-]` ; what pIC50 value has been reported?
6.82

What value of pIC50 has been reported for the following compound? Cc1ncsc1-c1ccc(CNC(=O)[C@@H]2C[C@@H](O)CN2C(=O)[C@@H](NC(=O)CCCCCCCCOc2ccc(C(c3ccc(Cl)cc3)N3CCN(C(=O)c4noc(C)c4[N+](=O)[O-])CC3)cc2)C(C)(C)C)cc1 (some centres not stated)
6.12

What value of pIC50 has been recorded for this entry: Cc1ncsc1-c1ccc([C@H](C)NC(=O)[C@@H]2C[C@@H](O)CN2C(=O)[C@@H](NC(=O)CCCCCCCCCOc2ccc(C(c3ccc(Cl)cc3)N3CCN(C(=O)c4noc(C)c4[N+](=O)[O-])CC3)cc2)C(C)(C)C)cc1 (some centres not stated)
5.92

---

- study target: Protein cereblon/Phospholipid hydroperoxide glutathione peroxidase GPX4 (Homo sapiens, UniProt P36969+Q96SW2)
- Sequence (Q96SW2 whole entry): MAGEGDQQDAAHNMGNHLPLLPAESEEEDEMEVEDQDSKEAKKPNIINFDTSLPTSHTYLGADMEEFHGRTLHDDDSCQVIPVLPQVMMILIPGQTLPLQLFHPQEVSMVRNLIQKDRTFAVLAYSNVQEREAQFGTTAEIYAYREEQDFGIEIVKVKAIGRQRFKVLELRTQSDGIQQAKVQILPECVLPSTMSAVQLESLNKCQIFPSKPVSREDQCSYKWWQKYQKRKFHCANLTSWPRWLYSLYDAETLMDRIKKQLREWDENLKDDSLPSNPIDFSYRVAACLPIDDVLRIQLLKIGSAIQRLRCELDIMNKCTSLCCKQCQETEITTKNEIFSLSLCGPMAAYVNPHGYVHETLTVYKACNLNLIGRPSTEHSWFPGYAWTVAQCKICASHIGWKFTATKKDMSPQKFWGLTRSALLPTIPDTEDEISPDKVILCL
- Sequence (P36969 whole entry): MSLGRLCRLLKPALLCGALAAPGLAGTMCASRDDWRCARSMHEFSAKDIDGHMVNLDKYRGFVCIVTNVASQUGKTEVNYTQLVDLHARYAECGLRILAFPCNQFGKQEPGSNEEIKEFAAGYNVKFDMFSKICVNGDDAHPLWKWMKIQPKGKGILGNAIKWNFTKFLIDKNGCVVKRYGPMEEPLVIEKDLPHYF
- measurement protocol: PROTAC activity at CRBN/GPX4 (unknown origin)
reported metric: EC50 (nM)
Response body: numeric value in nM, unit text excluded.

Which EC50 is listed for O=C1CCC(N2C(=O)c3cccc(NCCOCCOCCOCCn4cc(COc5ccc(N(C(=O)CCl)C(C(=O)NCCc6ccccc6)c6cccs6)cc5Cl)nn4)c3C2=O)C(=O)N1 (stereo unspecified) ?
200

---

Task for the reader: assign each of the following compounds its reported IC50.
- Tested on: HT-1080
- measurement protocol: Antiproliferative activity against human HT-1080 cells assessed as inhibition of cell growth incubated for 24 hrs by CCK-8 assay
- Format: functional, cell-based
- measurement parameters: HT-1080, 24 h
# value in µM; strip the unit string

Fill in the blank: the reported IC50 of Cc1ncsc1-c1ccc(CNC(=O)[C@@H]2C[C@@H](O)CN2C(=O)[C@@H](NC(=O)CCOc2ccc(C(c3ccc(Cl)cc3)N3CCN(C(=O)c4noc(C)c4[N+](=O)[O-])CC3)cc2)C(C)(C)C)cc1 (stereo not given in full) is ____.
2.17

Consider the compound Cc1ncsc1-c1ccc(CNC(=O)[C@@H]2C[C@@H](O)CN2C(=O)[C@@H](NC(=O)COCCOCCOCCOc2ccc(C(c3ccc(Cl)cc3)N3CCN(C(=O)c4noc(C)c4[N+](=O)[O-])CC3)cc2)C(C)(C)C)cc1 (stereo not given in full) and give its measured IC50.
3.24

Record request: IC50 value, item Cc1ncsc1-c1ccc(CNC(=O)[C@@H]2C[C@@H](O)CN2C(=O)[C@@H](NC(=O)CCCCCCCOc2ccc(C(c3ccc(Cl)cc3)N3CCN(C(=O)c4noc(C)c4[N+](=O)[O-])CC3)cc2)C(C)(C)C)cc1 (stereo not given in full)
1.69

What value of measured IC50 is listed for Cc1ncsc1-c1ccc(CNC(=O)[C@@H]2C[C@@H](O)CN2C(=O)[C@@H](NC(=O)COc2ccc(C(c3ccc(Cl)cc3)N3CCN(C(=O)c4noc(C)c4[N+](=O)[O-])CC3)cc2)C(C)(C)C)cc1 (stereo not given in full) ?
2.14

Look up IC50 for this compound: Cc1ncsc1-c1ccc(CNC(=O)[C@@H]2C[C@@H](O)CN2C(=O)[C@@H](NC(=O)CCCCCOc2ccc(C(c3ccc(Cl)cc3)N3CCN(C(=O)c4noc(C)c4[N+](=O)[O-])CC3)cc2)C(C)(C)C)cc1 (stereo not given in full)
2.29
